Values were extracted from patent US8927500B2.

# testDetails: Circular dichroism (CD) analysis of alpha-helicity
# Type: physicochemical
# testParameters: difference 50% TFE minus benign
Where a SMILES comes first, the peptide text is derived from it. Bridges are numbered along the chain shown (N, C = ends). [ ]: non-standard residue; d: D form. R8 = C=CCCCCCC[C@@](C)(N)C(=O)O; S5 = C=CCCC[C@](C)(N)C(=O)O; Nle = CCCC[C@H](N)C(=O)O
quantityMeasured: Molar Ellipticity TFE-Molar Ellipticity Benign
Answer format: number, then unit.

# compound, measurement
records = [
    ("CC(=O)N[C@@H](CC(C)C)C(=O)N[C@H](C(=O)N[C@@H](Cc1ccccc1)C(=O)N[C@]1(C)CCCCCCC=CCCC[C@@](C)(C(=O)N[C@@H](CO)C(=O)N[C@@H](C)C(=O)N[C@@H](Cc2ccccc2)C(N)=O)NC(=O)[C@H](CC(C)C)NC(=O)[C@H](CCC(N)=O)NC(=O)[C@H](C)NC(=O)[C@H](Cc2c[nH]c3ccccc23)NC(=O)[C@H](Cc2ccc(O)cc2)NC(=O)[C@H](C)NC1=O)[C@@H](C)O [compound 7] (Ac-LTF[R8]AYWAQL[S5]SAF-NH2; staple 4-11)", "−20045.4 deg cm2 dmol-1"),
    ("CC(=O)N[C@@H](CC(C)C)C(=O)N[C@H](C(=O)N[C@@H](Cc1ccccc1)C(=O)N[C@]1(C)CCCCCCC=CCCC[C@@](C)(C(=O)N[C@@H](C)C(=O)N[C@@H](C)C(=O)N[C@@H](C)C(=O)N[C@@H](C)C(=O)N[C@H](C)C(N)=O)NC(=O)[C@H](CC(C)C)NC(=O)[C@H](CCC(N)=O)NC(=O)[C@H](C)NC(=O)[C@H](Cc2c[nH]c3ccccc23)NC(=O)[C@H](Cc2ccc(O)cc2)NC(=O)[C@H](C)NC1=O)[C@@H](C)O", "−18554.7 deg cm2 dmol-1"),
    ("CC(=O)N[C@@H](CC(C)C)C(=O)N[C@H](C(=O)N[C@@H](Cc1ccccc1)C(=O)N[C@]1(C)CCCCCCC=CCCC[C@@](C)(C(=O)N[C@@H](C)C(=O)N[C@@H](C)C(=O)N[C@@H](C)C(=O)N[C@H](C)C(N)=O)NC(=O)[C@H](CC(C)C)NC(=O)[C@H](CCC(N)=O)NC(=O)[C@H](C)NC(=O)[C@H](Cc2c[nH]c3ccccc23)NC(=O)[C@H](Cc2ccc(O)cc2)NC(=O)[C@H](C)NC1=O)[C@@H](C)O (single isomer, unassigned)", "−17760.8 deg cm2 dmol-1"),
]

Query string: Which value of Molar Ellipticity TFE-Molar Ellipticity Benign has been reported for CC(=O)N[C@@H](CC(C)C)C(=O)N[C@H](C(=O)N[C@@H](Cc1ccccc1)C(=O)N[C@]1(C)CCCCCCC=CCCC[C@@](C)(C(=O)N[C@@H](Cc2c[nH]cn2)C(=O)N[C@@H](Cc2c[nH]cn2)C(=O)N[C@@H](CC(C)C)C(=O)N[C@H](C)C(N)=O)NC(=O)[C@H](CC(C)C)NC(=O)[C@H](CCC(N)=O)NC(=O)[C@H](C)NC(=O)[C@H](Cc2c[nH]c3ccccc23)NC(=O)[C@H](Cc2ccc(O)cc2)NC(=O)[C@H](C)NC1=O)[C@@H](C)O [compound 43] (Ac-LTF[R8]AYWAQL[S5]HHL[dA]-NH2; staple 4-11) in the records?
Result string: 2912.9 deg cm2 dmol-1

Query string: Quick one: `CC[C@H](C)[C@H](NC(=O)[C@H](C)NC(=O)[C@H](C)NC(=O)[C@]1(C)CCC/C=C/CCCCCC[C@@](C)(NC(=O)[C@H](Cc2ccccc2)NC(=O)[C@@H](NC(=O)[C@H](CC(C)C)NC(C)=O)[C@@H](C)O)C(=O)N[C@@H](C)C(=O)N[C@@H](Cc2ccc(O)cc2)C(=O)N[C@@H](Cc2c[nH]c3ccccc23)C(=O)N[C@@H](C)C(=O)N[C@@H](CCC(N)=O)C(=O)N[C@@H](CC(C)C)C(=O)N1)C(=O)N[C@H](C)C(N)=O`
Result string: −17835.9 deg cm2 dmol-1

Query string: Also CCCC[C@H](NC(=O)[C@H](CCC(N)=O)NC(=O)[C@H](CCC(N)=O)NC(=O)[C@]1(C)CCCC=CCCCCCC[C@@](C)(NC(=O)[C@H](Cc2ccccc2)NC(C)=O)C(=O)N[C@@H](C)C(=O)N[C@@H](Cc2ccc(O)cc2)C(=O)N[C@@H](Cc2c[nH]c3ccccc23)C(=O)N[C@@H]([C@@H](C)O)C(=O)N[C@@H](C)C(=O)N[C@@H](CC(C)C)C(=O)N1)C(=O)N[C@@H](C(N)=O)C(C)C [compound 41] (Ac-F[R8]AYWTAL[S5]QQ[Nle][dV]-NH2; staple 2-9) ?
Result string: 20410.4 deg cm2 dmol-1
